Tested on: H1-HeLa cells
Test: Cytotoxicity in mock-infected H1-HeLa cells (XTT)
Assay type: cell-based
Details: two days, read-out: Toxicity CC50
Attribute: CC50

Would you please look over these solved cases?
Compound	CC50
Cc1cc(CCCCCCCOc2ccc(C3=NCCO3)cc2)on1 [WIN 51711, reference compound]	> 60 µM
Cc1cc(CCCCCCCOc2ccc(C3=N[C@@H](C)CO3)cc2)on1 [WIN 52084, reference compound]	> 10 µM

Consider the additional compound presented here.
Data request, read-out CC50, for Cc1cc(CCCCCOc2c(Cl)cc(C3=NCCO3)cc2Cl)on1 [WIN 54954, reference compound]
> 63 µM
